Listed next: entries and their corresponding IC50 Ratio to (−) Mesembrine.
# study.target: SERT (Homo sapiens, UniProt P31645)
# Construct: expressed in transfected cells
# Sequence (P31645 whole entry, species assumed): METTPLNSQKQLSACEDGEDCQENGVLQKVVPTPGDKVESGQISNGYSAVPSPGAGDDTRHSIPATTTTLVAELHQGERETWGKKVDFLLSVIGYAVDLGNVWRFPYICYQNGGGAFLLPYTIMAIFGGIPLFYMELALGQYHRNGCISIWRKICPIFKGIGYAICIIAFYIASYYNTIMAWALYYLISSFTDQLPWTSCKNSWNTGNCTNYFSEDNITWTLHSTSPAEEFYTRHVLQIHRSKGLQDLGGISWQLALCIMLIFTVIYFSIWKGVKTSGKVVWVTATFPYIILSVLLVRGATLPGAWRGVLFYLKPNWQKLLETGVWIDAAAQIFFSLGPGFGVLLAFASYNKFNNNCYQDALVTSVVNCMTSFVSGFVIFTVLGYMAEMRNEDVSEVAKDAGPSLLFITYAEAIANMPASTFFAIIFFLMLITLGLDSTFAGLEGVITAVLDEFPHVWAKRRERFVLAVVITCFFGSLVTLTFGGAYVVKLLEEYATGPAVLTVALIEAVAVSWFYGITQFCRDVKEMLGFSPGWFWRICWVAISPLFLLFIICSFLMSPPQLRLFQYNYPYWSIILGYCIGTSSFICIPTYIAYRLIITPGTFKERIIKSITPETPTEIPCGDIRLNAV
# assay: SERT Inhibition Assay (Neurotransmitter Transportation Fluorescence assay)
# Type: cell-based
# study.conditions: SERT assay, ratio to compound 0001
readout: IC50 Ratio to (−) Mesembrine

- CCOc1ccc([C@@]23CC[C@@H](O)C[C@@H]2N(C)CC3)cc1OCC [Compound 1763]: ≥1.0
- CCCOc1cc([C@@]23CC[C@H](O)C[C@@H]2N(C)CC3)ccc1OC [Compound 0708]: ≥1.0
- CCOc1ccc([C@@]23CC[C@H](O)C[C@@H]2N(C)CC3)cc1OCC [Compound 1764]: ≤0.5
- CCCOc1cc([C@@]23CC[C@@H](O)C[C@@H]2N(C)CC3)ccc1OC [Compound 0707]: ≥10
- COc1ccc([C@@]23CCN(C)[C@@H]2C[C@H](O)[C@@H]2O[C@@H]23)cc1OC (single isomer, unassigned) [Compound 1932]: ≥10
- COc1cc([C@@]23CC[C@@H](O)C[C@@H]2N(C)CC3)ccc1OC(F)F [Compound 2723]: ≤0.5
- COc1ccc([C@]23CCN(C)[C@H]2[C@H]2CC[C@@H]3C[C@H]2O)cc1OC [Compound 1933]: ≥1.0
- COc1cc([C@@]23CC[C@H](O)C[C@@H]2N(C)CC3)ccc1O [Compound 2700]: ≥1.0
- COc1ccc([C@]23CCN(C)[C@H]2C[C@@H](O)[C@@H]2O[C@@H]23)cc1OC [Compound 1930]: ≥10
- COc1ccc([C@@]23C=C[C@H](O)C[C@@H]2N(C)CC3)cc1OC [Compound 0021]: ≥10
- CCN1CC[C@]2(c3ccc(OC)c(OC)c3)CC[C@@H](O)C[C@H]12 [Compound 1001]: ≥100
- COc1ccc([C@]23C=C[C@@H](O)C[C@H]2N(C)CC3)cc1OC [Compound 0024]: ≥100
- COc1ccc([C@]23C=C[C@H](O)C[C@H]2N(C)CC3)cc1OC [Compound 0023]: ≥10
- COc1ccc([C@@]23C=C[C@@H](O)C[C@@H]2N(C)CC3)cc1OC [Compound 0020]: ≥100

====

# study.target: SERT (Homo sapiens)
# Construct: expressed in transfected cells
# assay: SERT Inhibition Assay (Neurotransmitter Transportation Fluorescence assay)
# Format: cell-based
# study.conditions: stable 5HHH cells, 30 minutes at 37° C.; read-out: SERT Assay Potency Range
readout: IC50

* COc1ccc([C@]23C=C[C@@H](O)C[C@H]2N(C)CC3)cc1OC | 100 to 500 nM
* COc1cc([C@@]23CC[C@H](O)C[C@@H]2N(C)CC3)ccc1O | < 50 nM
* COc1ccc([C@]23C=C[C@H](O)C[C@H]2N(C)CC3)cc1OC | 100 to 500 nM
* COc1cc([C@@]23CC[C@H](O)C[C@@H]2N(C)CC3)ccc1OC(F)F | < 50 nM
* CCOc1ccc([C@@]23CC[C@@H](O)C[C@@H]2N(C)CC3)cc1OCC | < 50 nM
* COc1ccc([C@]23CCN(C)[C@H]2[C@H]2CC[C@@H]3C[C@H]2O)cc1OC | < 50 nM
* COc1ccc([C@@]23CC[C@H](O)C[C@@H]2N(C)CC3)cc1OC | < 50 nM
* CCOc1ccc([C@@]23CC[C@H](O)C[C@@H]2N(C)CC3)cc1OCC | < 50 nM

====

Item-by-item account of IC50
# study.target: SERT (Homo sapiens, UniProt P31645)
# Construct: expressed in transfected cells
# assay: SERT Inhibition Assay (Neurotransmitter Transportation Fluorescence assay)
# Assay type: cell-based
# study.conditions: stable 5HHH cells, 30 minutes at 37° C.; read-out: SERT Assay Potency Range
readout: IC50

• CCCOc1cc([C@@]23CC[C@@H](O)C[C@@H]2N(C)CC3)ccc1OC = 50 to 100 nM
• CCN1CC[C@]2(c3ccc(OC)c(OC)c3)CC[C@@H](O)C[C@H]12 = > 1000 nM
• COc1ccc([C@@]23C=C[C@@H](O)C[C@@H]2N(C)CC3)cc1OC = 100 to 500 nM
• COc1ccc([C@]23CCN(C)[C@H]2C[C@@H](O)[C@@H]2O[C@@H]23)cc1OC = 100 to 500 nM
• COc1ccc([C@@]23C=C[C@H](O)C[C@@H]2N(C)CC3)cc1OC = 100 to 500 nM
• CCN1CC[C@]2(c3ccc(OC)c(OC)c3)CC[C@H](O)C[C@H]12 = 500 to 1000 nM
• COc1ccc([C@@]23CCN(C)[C@@H]2C[C@H](O)[C@@H]2O[C@@H]23)cc1OC (single isomer, unassigned) = 100 to 500 nM
• COc1ccc([C@@]23CC[C@@H](O)C[C@@H]2N(C)CC3)cc1OC = < 50 nM
• CCCOc1cc([C@@]23CC[C@H](O)C[C@@H]2N(C)CC3)ccc1OC = < 50 nM
